B1: POLD4 (parent)
chain: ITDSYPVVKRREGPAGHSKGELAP

Variants of: B1
Assay: protein stability index of a GFP-peptide fusion (GPS, HEK-293T) (PSI 1-6); higher = more stable;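 note: lentivirally expressed fusions sorted by FACS into six bins by GFP to DsRed ratio, PSI derived from sequencing read proportions per bin multiplied by bin number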
Conditions: c terminus: a fixed tail appended
Assign class by protein stability index: not lower than 3 means met; lower than 3 means not met.

1. K9H = not met
2. A15I = not met
3. K9Y = met
4. R11P = met
5. K19L = not met
6. P6W = met
7. Y5K = met
8. I1H = met
9. R10T = met
10. G16Q = met
11. P14A = met
12. E21P = met
13. T2Y = met
14. I1S = met
15. P24M = not met
16. S4Q = met
17. P14V = not met
18. G13C = met
19. G16S = not met
20. S4R = met
21. R11N = met
22. Y5E = met
23. I1L = met
24. Y5S = met
25. E21S = not met
26. S18V = not met
27. E12R = not met
28. K9R = met
29. G16M = not met
30. L22N = met
31. E12I = met
32. D3Y = not met
33. R10S = met
34. H17E = met
35. G16L = not met
36. P14I = met
37. P24R = not met
38. P14Y = not met
39. K19S = met
40. G16W = not met
41. E12S = not met
42. T2L = met
43. P24S = met
44. P6T = met
45. G13Q = met
46. G20W = not met
47. R11Y = met
48. V8E = met
49. I1T = met
50. V7D = met
51. G20K = not met
52. A15K = met
53. P6E = met
54. E12M = not met
55. A23W = met
56. G13V = not met
57. P6H = met
58. K19G = met
59. G13I = not met
60. I1R = met
61. E21N = met
62. K9P = met
63. K19V = met
64. P14S = not met
65. I1G = met
66. V7Q = met
67. K19N = not met
68. V7T = met
69. E12Y = not met
70. Y5P = met
71. I1D = met
72. P24D = not met
73. G20C = met
74. D3S = not met
75. R10N = met
76. S4I = met
77. T2A = not met
78. Y5M = met
79. R11A = met
80. Y5L = met
81. V8I = met
